Where these numbers come from: the supplement of paper PMC12764529

- Test description: folding stability dG unfold (combined trypsin and chymotrypsin); higher = more stable
Think of 3 kcal/mol as a floor: if folding stability dG unfold stands on it or above, it is condition met; beneath it, condition not met.

# Residue string, Assigned class
measured = [
    ("SAGGSAGGPPDDVEPEEFTFRFGDKPIKVEILRVNPDNNNIMIKHESNGKPKTMMFPPEDLEKLSAGGSAGG [r6_421_TrROS]", "condition not met"),
    ("SAKILEIKPLPDGTVIIKIPVDAPEDVDPKEVKILVKSEEGVKEAEILEDGTIDIVVENVKDVKIEIFVESA [r9_722_TrMRF]", "condition not met"),
    ("SKVKVEVVEVKYNKETKKFTVKLKVYNEDGELIEEIELEFPESEEEVLKKAEELAKELAEKYGLKIEIKPSA [r9_31_TrROS_Hall]", "condition met"),
    ("SAGGNLFIRIKIEHDGGPITHWFPIKDAEQAKDNIKEFFDQQGLPVKIKEIEVFPEEGFIPVEWRVPPSAGG [r13_567_TrROS]", "condition not met"),
    ("SAGGKIPKNAKILEVEFDPETGYIRIKVEFYDKNGKLIKKAEITIPILPVPPLSPEDIEKLLKALASSAGGS [r16_697_TrMRF]", "condition met"),
    ("SEKLTEEEVEKLAEELAKELEEETGKKVTVEVEVEKVEVEKDGEKEEVEVVRIKITVDPETGEVTIEVEPSA [r9_9_TrROS_Hall]", "condition not met"),
    ("SAGGSAGGSAGEEKETLTLVLPLEDMSPEEIAKLLEAAGYKVTVEEKDGLLVVKIERKPPSAGGSAGGSAGG [r11_707_TrROS_Hall]", "condition not met"),
    ("SAGKRMPVEEIANELAKEFPPGQTREVPIRNEDGGEWITLTVYHPNGKPVWKITIRPDGEIEVEWVPLSAGG [r19_0_TrROS]", "condition not met"),
    ("SAGGSAGGSAGATISPDGYKIVVTNADGEKVTLTFDSLEEAKAALEALLPPGARVFIEKVSAGGSAGGSAGG [r11_983_TrROS_Hall]", "condition not met"),
    ("SAGGKEYTAKVVEIKKVGNKIFIKIKLSDGRELTIEIKTPEEAKKLKVGDTVKITVNEDGSLTIEVLSAGGS [r16_2_TrROS_Hall]", "condition met"),
    ("SAGGSAGGSAKAKVIKTEEFELPNGVRIRIEYIEVDGKLIEKVEIEIKAESEEQKKALEKASAGGSAGGSAG [r3_158_TrROS_Hall]", "condition not met"),
    ("SRTIENPDNGIKITVDRVPGGRYRVHIFNPGGKPIHEREIPDMPIPPGDTREIKIPIKGLPPGMYLMLEPWS [r1_263_TrROS]", "condition not met"),
    ("SAGGKTLVITVEAPPEDWDKILELAREALELGGDVVVVAPFPDGLTVTVRAEKPLGKIVEVTVAPDDASAGG [r13_873_TrMRF]", "condition not met"),
    ("SAGMTITVKPGEKVKVTIKVEVFDENGKLIKKEEKEVEITVKEGDEITIKIKLDKPVKVKIEIKIEKKSAGG [r19_295_TrROS_Hall]", "condition not met"),
    ("SAGGSAGGSSMTPVSSTRSSPSNSVTYTTSRIPIDPSPGKVLNVTTTYSPDPSVTTTTTTVEPSSAGGSAGG [r6_13_JUSTAS]", "condition not met"),
    ("SAGGSAMTPVTLEITSEEELEAKIEELAPPGRTVTINVTSTTEKTRVEDDVTRDYTVVTANVTFPPSAGGSA [r15_95_JUSTAS]", "condition not met"),
    ("SAGGSAGGSAGGMKVTVETFEGPDFEIVTERSPEGKVKVFTIKPNEVKEEVIPLENPELSAGGSAGGSAGGS [r10_1169_JUSTAS]", "condition not met"),
    ("SAGGSAGGRKTRRLVLEVDDIPEGVSAEELTEEELRRLGLPPDARIRVVRRPDGRLLVVIEVRESAGGSAGG [r6_551_TrROS_Hall]", "condition not met"),
    ("SAGGKPLTVEDAKELAESLAKPLKEELGLGNVKILAAPVEVGGEEGKPAEVRIGFLFDLSEDGEFVGSAGGS [r16_751_TrMRF]", "condition not met"),
    ("SAGGMVDVTITFTKPDGTPETRPIPASSLPLEELVARIRALREAGVEAEVELPPSLPEEVREALARLLSAGG [r13_251_JUSTAS]", "condition not met"),
    ("SAGGSALTIKVKDPEDIKDLEIQVYLPDGRPMLMKIEVQRDEGPPYVKIKAENPGNGKKRKETFPFSAGGSA [r15_1006_TrROS]", "condition not met"),
    ("SAGGSAGGSAGMRLVTITLTTEKPIFDENGNPIGTTTRTVVLEREVPEPEVPEVPLYQALSAGGSAGGSAGG [r11_131_JUSTAS]", "condition not met"),
    ("SAGGKKKKKKPKIVRVKITLKNENGEEIEIDEAVILPDGTILIRDKKTGKIFEIKLDDITKIEIEEVSAGGS [r8_410_TrROS_Hall]", "condition not met"),
    ("SAGGSAGGSAGGTKTYTITNEDGSKITIEEVDGKYVITYPNGEKKEIEGMTLEELLKALSAGGSAGGSAGGS [r10_569_TrROS_Hall]", "condition met"),
    ("SAGMKIEIEAEYDPESGTVTLHIKEEPEPGEPVEVKFPIKFLKDKVEIEAETEEPLDPEEILKKIKEELSAG [r5_478_TrMRF]", "condition not met"),
    ("SAGGSAGGKIRVEVEVEPLPGPEEGGRLLRVRVRVYNENGELLEEIEFPARSPEEAEERLRKAASAGGSAGG [r6_974_TrMRF]", "condition met"),
    ("SAGGSAMPLLKPPKTIRLRILFKVPEPGKELDITEEAVRELFNPFGAKVRIYRDGDYVLIEVEFVVSAGGSA [r15_377_TrMRF]", "condition met"),
]
